Measurement record for Bcl-xL (GST-Bcl-xL) (Homo sapiens); quantity recorded: pIC50.
Lab note: report pIC50 as minus log10 of the concentration in molar units, number only.

Asked: Indicate its recorded pIC50; the compound in question is N#Cc1c(-c2ccc(O)cc2)n[nH]c1NCCCc1sc(N2CCc3cccc(C(=O)Nc4nc5ccccc5s4)c3C2)nc1C(=O)O
Given back: 7.30

Asked: Indicate its recorded pIC50; the compound in question is CN1CCN(c2cccc(OCCCc3ccc(N4CCc5cccc(C(=O)Nc6nc7ccccc7s6)c5C4)nc3C(=O)O)c2)CC1
Given back: 8.66

Asked: Indicate its recorded pIC50; the compound in question is O=C(Nc1nc2ccccc2s1)c1cccc2c1CN(c1ccc(CCCOc3ccnc(Cl)c3)c(C(=O)O)n1)CC2
Given back: 7.97

Asked: Indicate its recorded pIC50; the compound in question is O=C(Nc1nc2ccccc2s1)c1cccc2c1CN(c1nc(C(=O)O)c(CCCOc3ccc(C4(c5ccccc5)CCCC4)cc3)s1)CC2
Given back: 7.57

Asked: Indicate its recorded pIC50; the compound in question is N#Cc1c(-c2ccc(OCc3ccc(-c4sc(N5CCc6cccc(C(=O)Nc7nc8ccccc8s7)c6C5)nc4C(=O)O)cc3)cc2)n[nH]c1N
Given back: 8.00

Asked: Indicate its recorded pIC50; the compound in question is O=C(Nc1nc2ccccc2s1)c1cccc2c1CN(c1nc(C(=O)O)c(CCCN3CCCCC3)s1)CC2
Given back: 8.10

Asked: Indicate its recorded pIC50; the compound in question is O=C(Nc1nc2ccccc2s1)c1cccc2c1CN(c1nc(C(=O)O)c(CCNS(=O)(=O)c3cccc([N+](=O)[O-])c3)s1)CC2
Given back: 6.59

These entries and their values trace back to patent US8232273B2.
